Target: human Patched (hPtc) expressed in S. cerevisiae (Homo sapiens, UniProt Q13635)
Construct: MAP; expressed in transfected cells; host or cells: Saccharomyces cerevisiae K699
Sequence (Q13635 1-1447): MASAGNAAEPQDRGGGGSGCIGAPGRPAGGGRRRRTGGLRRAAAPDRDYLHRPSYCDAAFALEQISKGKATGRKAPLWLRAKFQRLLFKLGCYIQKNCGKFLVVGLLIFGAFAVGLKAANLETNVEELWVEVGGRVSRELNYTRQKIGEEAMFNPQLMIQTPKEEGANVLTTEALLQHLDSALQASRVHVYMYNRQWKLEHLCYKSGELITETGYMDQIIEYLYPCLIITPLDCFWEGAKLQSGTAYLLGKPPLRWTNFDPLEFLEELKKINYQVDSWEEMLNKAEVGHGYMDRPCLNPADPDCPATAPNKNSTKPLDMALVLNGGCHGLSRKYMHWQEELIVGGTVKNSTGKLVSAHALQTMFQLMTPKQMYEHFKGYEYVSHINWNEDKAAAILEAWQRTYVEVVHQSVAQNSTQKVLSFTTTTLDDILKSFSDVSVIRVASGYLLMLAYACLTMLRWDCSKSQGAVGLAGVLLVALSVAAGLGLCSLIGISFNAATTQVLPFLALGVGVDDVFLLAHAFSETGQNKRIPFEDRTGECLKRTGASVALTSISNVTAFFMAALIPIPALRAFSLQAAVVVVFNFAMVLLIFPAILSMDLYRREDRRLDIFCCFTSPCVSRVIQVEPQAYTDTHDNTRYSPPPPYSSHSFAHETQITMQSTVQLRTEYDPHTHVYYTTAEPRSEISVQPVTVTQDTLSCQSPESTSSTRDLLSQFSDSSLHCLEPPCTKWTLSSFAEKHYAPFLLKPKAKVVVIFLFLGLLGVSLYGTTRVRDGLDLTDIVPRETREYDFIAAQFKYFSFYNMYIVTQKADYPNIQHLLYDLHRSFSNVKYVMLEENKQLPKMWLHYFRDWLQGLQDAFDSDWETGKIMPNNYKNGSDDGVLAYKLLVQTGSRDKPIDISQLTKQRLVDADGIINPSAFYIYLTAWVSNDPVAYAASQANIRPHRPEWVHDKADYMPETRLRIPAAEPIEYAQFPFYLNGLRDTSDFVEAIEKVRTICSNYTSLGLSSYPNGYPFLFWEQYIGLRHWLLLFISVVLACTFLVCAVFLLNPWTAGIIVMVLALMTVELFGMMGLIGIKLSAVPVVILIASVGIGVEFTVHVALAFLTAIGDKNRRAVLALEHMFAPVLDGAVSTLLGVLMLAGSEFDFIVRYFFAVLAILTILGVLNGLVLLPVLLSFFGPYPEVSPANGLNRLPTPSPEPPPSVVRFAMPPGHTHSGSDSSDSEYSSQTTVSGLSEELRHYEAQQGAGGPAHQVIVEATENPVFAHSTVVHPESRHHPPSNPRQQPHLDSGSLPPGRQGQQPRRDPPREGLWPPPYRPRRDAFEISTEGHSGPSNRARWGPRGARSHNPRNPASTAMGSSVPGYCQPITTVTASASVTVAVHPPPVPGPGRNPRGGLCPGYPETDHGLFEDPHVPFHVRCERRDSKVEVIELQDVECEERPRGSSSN
Assay: Screening test 1: resistance of Patched-expressing yeast to doxorubicin (yeast growth, absorbance 600 nm)
Type: cell-based
Settings: 10 μg/mL fraction or purified compound, 10 μM doxorubicin
Protocol: A. Haliclona mucosa sponge. B. Haliclona mucosa methanolic fraction contains inhibitors of the resistance of Patched-expressing yeasts to doxorubicin. […] The growth of yeasts was measured by absorbance at 600 nm and the results shown are the mean of three independent experiments. […] The growth of yeasts was measured by absorbance at 600 nm. […]
EXPERIMENTAL ENDPOINT: inhibition of the resistance (growth) of hPtc-expressing yeast in presence of dxr

[
  {
    "MOLECULE": "C/C(=C\\Cc1cc(O)ccc1O)CCc1c(C)c(O)c(O)c(C=O)c1C [P2, Panicein C]",
    "TEST TARGET": "human Patched (hPtc) expressed in S. cerevisiae (Homo sapiens, UniProt Q13635)",
    "REPORTED": "strongly inhibit"
  },
  {
    "MOLECULE": "COc1cc(C)c(CC/C(C)=C/Cc2cc(O)ccc2O)c(C)c1C [P5, Panicein A hydroquinone]",
    "TEST TARGET": "human Patched (hPtc) expressed in S. cerevisiae (Homo sapiens, UniProt Q13635)",
    "REPORTED": "strongly inhibit"
  },
  {
    "MOLECULE": "C/C(=C\\Cc1cc(O)ccc1O)CCc1c(C)cc(O)c(C=O)c1C [P3, Panicein B3]",
    "TEST TARGET": "human Patched (hPtc) expressed in S. cerevisiae (Homo sapiens, UniProt Q13635)",
    "REPORTED": "strongly inhibit"
  }
]
